Target: Melanocortin receptor 4 (Homo sapiens, UniProt P32245)
Sequence (P32245 whole entry): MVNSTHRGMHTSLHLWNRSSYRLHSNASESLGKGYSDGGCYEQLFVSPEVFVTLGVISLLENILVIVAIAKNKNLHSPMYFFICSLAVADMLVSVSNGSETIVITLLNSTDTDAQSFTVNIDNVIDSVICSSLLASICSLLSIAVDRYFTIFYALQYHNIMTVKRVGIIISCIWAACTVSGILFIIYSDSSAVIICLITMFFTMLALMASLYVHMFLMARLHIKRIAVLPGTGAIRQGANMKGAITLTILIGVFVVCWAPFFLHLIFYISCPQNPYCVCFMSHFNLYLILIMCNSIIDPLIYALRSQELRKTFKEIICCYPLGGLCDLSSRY
Test: Percentage of maximal response with respect to alpha-MSH in cells expressing the melanocortin 4 receptor
Format: functional
Give measured Activation for each item. Keep answers brief.
Answers are plain numbers, in %.

molecule: CS(=O)(=O)N1CC2(CCN(C(=O)[C@@H](Cc3ccc(Cl)cc3)NC(=O)[C@H]3Cc4ccccc4CN3)CC2)c2ccccc21
Activation (%): 100

molecule: CC(=O)N1CCN(C(=O)C[C@H](Cc2ccc(Cl)cc2)C(=O)N2CCN(c3ccccc3N(CC3CC3)S(C)(=O)=O)CC2)CC1
Activation (%): 0

Next item in the queue.
Task: Give recorded Activation with Melanocortin receptor 4 (Homo sapiens, UniProt P32245) for the following molecule: CCN(C(C)=O)C(C)c1ccccc1N1CCN(C(=O)[C@H](CC(=O)NCc2ccccc2F)Cc2ccc(Cl)cc2)CC1 (stereo partly drawn)
Output: 100

* * *

These compounds were tested on UniProtKB P32245; IC50 is the recorded read-out.
Give bare numbers, in nM.

Consider the following illustrative entries.
compound: CCN(C(C)=O)C(C)c1ccccc1N1CCN(C(=O)[C@H](CC(=O)NC2CCC2)Cc2ccc(Cl)cc2)CC1 (some centres not stated)
IC50 (nM): 5.8
--
compound: CC(C)CCN1CCN(C(=O)C[C@H](Cc2ccc(Cl)cc2)C(=O)N2CCN(c3ccccc3N(CC3CC3)S(C)(=O)=O)CC2)CC1
IC50 (nM): 4.8
--
compound: CCCN1CCN(C(=O)C[C@H](Cc2ccc(Cl)cc2)C(=O)N2CCN(c3ccccc3N(CC3CC3)S(C)(=O)=O)CC2)CC1
IC50 (nM): 8.9
--
compound: CC(=O)N1CCN(C(=O)C[C@H](Cc2ccc(Cl)cc2)C(=O)N2CCN(c3ccccc3N(CC3CC3)S(C)(=O)=O)CC2)CC1
IC50 (nM): 11
--
compound: CS(=O)(=O)N(CC1CC1)c1ccccc1N1CCN(C(=O)[C@@H](Cc2ccc(Cl)cc2)NC(=O)C2CCNCC2)CC1
IC50 (nM): 130

Give IC50 for all compounds that follow.
1. CCOC(=O)N1CCN(C(=O)C[C@H](Cc2ccc(Cl)cc2)C(=O)N2CCN(c3ccccc3N(CC3CC3)S(C)(=O)=O)CC2)CC1
2. CCN(C(C)=O)C(C)c1ccccc1N1CCN(C(=O)[C@H](CC(=O)N2CCC2)Cc2ccc(Cl)cc2)CC1 (some centres not stated)

Output:
[1.4, 19]

* * *

Give measured EC50 for each item. Keep answers brief.
Biological target: UniProt P32245
Experiment: Intracellular level of cAMP in cells expressing the melanocortin 4 receptor

Consider the following illustrative entries.
molecule: CCCN1CCN(C(=O)C[C@H](Cc2ccc(Cl)cc2)C(=O)N2CCN(c3ccccc3N(CC3CC3)S(C)(=O)=O)CC2)CC1
systemName: UniProt P32245
dataValue: > 10 µM

molecule: CCN(C(C)=O)C(C)c1ccccc1N1CCN(C(=O)[C@H](CC(=O)NCc2ccccn2)Cc2ccc(Cl)cc2)CC1 (some centres not stated)
systemName: UniProt P32245
dataValue: 0.037 µM

molecule: CCN(C(C)=O)C(C)c1ccccc1N1CCN(C(=O)[C@H](CC(=O)N2CCN(C(=O)OC(C)(C)C)CC2)Cc2ccc(Cl)cc2)CC1 (some centres not stated)
systemName: UniProt P32245
dataValue: > 10 µM

molecule: CS(=O)(=O)N(CC1CC1)c1ccccc1N1CCN(C(=O)[C@H](CC(=O)N2CCN(CC3CC3)CC2)Cc2ccc(Cl)cc2)CC1
systemName: UniProt P32245
dataValue: > 10 µM

molecule: CS(=O)(=O)N1CC2(CCN(C(=O)[C@@H](Cc3ccc(Cl)cc3)NC(=O)[C@H]3Cc4ccccc4CN3)CC2)c2ccccc21
systemName: UniProt P32245
dataValue: 0.0052 µM

Give EC50 for all molecules that follow.
1. CC(C)CCN1CCN(C(=O)C[C@H](Cc2ccc(Cl)cc2)C(=O)N2CCN(c3ccccc3N(CC3CC3)S(C)(=O)=O)CC2)CC1
2. CC(=O)N1CCN(C(=O)C[C@H](Cc2ccc(Cl)cc2)C(=O)N2CCN(c3ccccc3N(CC3CC3)S(C)(=O)=O)CC2)CC1

Output:
1. > 10 µM
2. > 10 µM

* * *

Target: UniProtKB P32245
Experiment: Percentage of maximal response with respect to alpha-MSH in cells expressing the melanocortin 4 receptor
Type: functional
assayEndpoint: Activation

Give Activation for all compounds that follow.
1. CCN(C(C)=O)C(C)c1ccccc1N1CCN(C(=O)[C@H](CC(=O)N2CCSC2)Cc2ccc(Cl)cc2)CC1 (stereo not given in full)
2. CCOC(=O)N1CCN(C(=O)C[C@H](Cc2ccc(Cl)cc2)C(=O)N2CCN(c3ccccc3N(CC3CC3)S(C)(=O)=O)CC2)CC1
3. CCN1CCN(C(=O)C[C@H](Cc2ccc(Cl)cc2)C(=O)N2CCN(c3ccccc3N(CC3CC3)S(C)(=O)=O)CC2)CC1
4. CC(C)CCN1CCN(C(=O)C[C@H](Cc2ccc(Cl)cc2)C(=O)N2CCN(c3ccccc3N(CC3CC3)S(C)(=O)=O)CC2)CC1
5. CS(=O)(=O)N(CC1CC1)c1ccccc1N1CCN(C(=O)[C@H](CC(=O)N2CCN(CC3CC3)CC2)Cc2ccc(Cl)cc2)CC1
6. CS(=O)(=O)N(CC1CC1)c1ccccc1N1CCN(C(=O)[C@H](CC(=O)N2CCNCC2)Cc2ccc(Cl)cc2)CC1
7. CCN(C(C)=O)C(C)c1ccccc1N1CCN(C(=O)[C@H](CC(=O)NC2CCC2)Cc2ccc(Cl)cc2)CC1 (stereo not given in full)
8. CCN(C(C)=O)C(C)c1ccccc1N1CCN(C(=O)[C@H](CC(=O)NCc2ccccn2)Cc2ccc(Cl)cc2)CC1 (stereo not given in full)

Output:
1. 80%
2. 0%
3. 0%
4. 0%
5. 0%
6. 70%
7. 100%
8. 95%

Give Activation for all compounds that follow.
1. CS(=O)(=O)N(CC1CC1)c1ccccc1N1CCN(C(=O)[C@@H](Cc2ccc(Cl)cc2)NC(=O)C2CCNCC2)CC1
2. CC(C)(C)CC(=O)N1CCN(C(=O)C[C@H](Cc2ccc(Cl)cc2)C(=O)N2CCN(c3ccccc3N(CC3CC3)S(C)(=O)=O)CC2)CC1
3. CS(=O)(=O)N(CC1CC1)c1ccccc1N1CCN(C(=O)[C@H](CC(=O)N2CCN(C(=O)c3ccccc3)CC2)Cc2ccc(Cl)cc2)CC1
4. CCCN1CCN(C(=O)C[C@H](Cc2ccc(Cl)cc2)C(=O)N2CCN(c3ccccc3N(CC3CC3)S(C)(=O)=O)CC2)CC1
5. CCN(C(C)=O)C(C)c1ccccc1N1CCN(C(=O)[C@H](CC(=O)N2CCN(C(=O)OC(C)(C)C)CC2)Cc2ccc(Cl)cc2)CC1 (stereo not given in full)
6. CCN(C(C)=O)C(C)c1ccccc1N1CCN(C(=O)[C@H](CC(=O)N2CCC2)Cc2ccc(Cl)cc2)CC1 (stereo not given in full)

Output:
1. > 90%
2. 45%
3. 55%
4. 0%
5. 0%
6. 90%

Task: Recorded Activation for CC(C)(C)OC(=O)N1CCN(C(=O)C[C@H](Cc2ccc(Cl)cc2)C(=O)N2CCN(c3ccccc3N(CC3CC3)S(C)(=O)=O)CC2)CC1 , please?
Output: 0%

* * *

These molecules were tested on Melanocortin receptor 3 (Homo sapiens); IC50 is the recorded read-out.
Sequence (P41968 whole entry): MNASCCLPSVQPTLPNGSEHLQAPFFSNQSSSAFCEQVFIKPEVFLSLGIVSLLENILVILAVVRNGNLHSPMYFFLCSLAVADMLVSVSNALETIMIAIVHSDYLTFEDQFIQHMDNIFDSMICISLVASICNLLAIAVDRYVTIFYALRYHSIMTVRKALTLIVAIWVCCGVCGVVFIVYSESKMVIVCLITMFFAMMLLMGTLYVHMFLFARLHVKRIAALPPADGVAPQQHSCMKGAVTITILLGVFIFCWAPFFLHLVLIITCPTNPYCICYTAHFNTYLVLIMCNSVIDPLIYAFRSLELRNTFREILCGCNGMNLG

Consider the following illustrative entries.
molecule: CCN(C(C)=O)C(C)c1ccccc1N1CCN(C(=O)[C@H](CC(=O)N2CCC2)Cc2ccc(Cl)cc2)CC1 (stereo not given in full)
assayEndpoint: IC50
dataValue: > 10 µM
--
molecule: CC(=O)N1CCN(C(=O)C[C@H](Cc2ccc(Cl)cc2)C(=O)N2CCN(c3ccccc3N(CC3CC3)S(C)(=O)=O)CC2)CC1
assayEndpoint: IC50
dataValue: > 10 µM
--
molecule: CC(C)(C)CC(=O)N1CCN(C(=O)C[C@H](Cc2ccc(Cl)cc2)C(=O)N2CCN(c3ccccc3N(CC3CC3)S(C)(=O)=O)CC2)CC1
assayEndpoint: IC50
dataValue: > 10 µM
--
molecule: CS(=O)(=O)N1CC2(CCN(C(=O)[C@@H](Cc3ccc(Cl)cc3)NC(=O)[C@H]3Cc4ccccc4CN3)CC2)c2ccccc21
assayEndpoint: IC50
dataValue: 2.9 µM

Task: Recorded IC50 for CC(C)(C)OC(=O)N1CCN(C(=O)C[C@H](Cc2ccc(Cl)cc2)C(=O)N2CCN(c3ccccc3N(CC3CC3)S(C)(=O)=O)CC2)CC1 , please?
Output: > 3.5 µM

* * *

Target: UniProt:P32245
Assay: Intracellular level of cAMP in cells expressing the melanocortin 4 receptor
pEC50: −log10 of the molar value.
assayEndpoint: pEC50

Give pEC50 for all compounds that follow.
1. CCOC(=O)N1CCN(C(=O)C[C@H](Cc2ccc(Cl)cc2)C(=O)N2CCN(c3ccccc3N(CC3CC3)S(C)(=O)=O)CC2)CC1
2. CC(C)(C)OC(=O)N1CCN(C(=O)C[C@H](Cc2ccc(Cl)cc2)C(=O)N2CCN(c3ccccc3N(CC3CC3)S(C)(=O)=O)CC2)CC1
3. CS(=O)(=O)N(CC1CC1)c1ccccc1N1CCN(C(=O)[C@@H](Cc2ccc(Cl)cc2)NC(=O)C2CCNCC2)CC1
4. CCN1CCN(C(=O)C[C@H](Cc2ccc(Cl)cc2)C(=O)N2CCN(c3ccccc3N(CC3CC3)S(C)(=O)=O)CC2)CC1

Output:
1. < 5.00
2. < 5.00
3. > 10.00
4. < 5.00
